Glyceraldehyde-3-phosphate dehydrogenase (Homo sapiens): recorded IC50 for assorted compounds
Sequence (P04406 whole entry): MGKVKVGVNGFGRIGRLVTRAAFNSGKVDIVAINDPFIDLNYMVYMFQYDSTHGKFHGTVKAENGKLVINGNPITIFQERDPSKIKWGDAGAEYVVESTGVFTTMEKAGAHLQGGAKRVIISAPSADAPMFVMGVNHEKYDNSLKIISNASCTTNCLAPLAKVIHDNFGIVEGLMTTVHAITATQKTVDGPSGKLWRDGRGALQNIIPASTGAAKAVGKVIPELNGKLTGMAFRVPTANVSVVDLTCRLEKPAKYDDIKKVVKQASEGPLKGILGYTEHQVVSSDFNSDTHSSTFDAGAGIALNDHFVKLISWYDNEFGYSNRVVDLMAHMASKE

Sample records with IC50:
Give its IC50 value. Item: CCOC(=O)C1Nc2c(OC)cccc2C2OCCC12 (stereo not given) > 100 µM (not active)

Give its IC50 value. Item: COc1ccccc1C(=O)C1Nc2ccccc2-c2nnc(SC)nc2O1 (stereo not given) > 100 µM (not active)

Give its IC50 value. Item: `COc1cccc(N2C(=O)C(Cl)=C(N3CCN(CCOCCO)CC3)C2=O)c1` > 100 µM (not active)

Give its IC50 value. Item: `Oc1ccccc1-c1n[nH]c(-c2ccccc2O)n1` > 100 µM (not active)

Give its IC50 value. Item: `CCCn1c(=O)nc(NCc2ccc(C)cc2)[nH]c1=O` > 100 µM (not active)

Next up:
Give its IC50 value. Item: `O=C(c1ccccc1)c1ccc(Oc2ccc(C(=O)O)c(C(=O)O)c2)cc1` > 100 µM (not active)

// data source = ChEMBL document CHEMBL1201862
